# test target: Cdk5/p25 (Homo sapiens)
# measurement description: Cyclin-Dependent Kinase 5 High Throughput Screening (cdk5-HTS) Assay
# Type: biochemical
# test conditions: high throughput screen
pIC50: −log10 of the molar value.
Reported pIC50 by item:
readout name: pIC50

INSERT INTO measurements (compound, endpoint_value) VALUES
  ('CCC(C)n1c(=O)ccc2cnc(Nc3ccc(O)cc3F)nc21 (stereo not drawn) [Example 451]', 6.88),
  ('CCCn1c(=O)ccc2cnc(Nc3cc(Cl)c(O)c(Cl)c3)nc21 [Example 328]', 7.03),
  ('CCC(CC)n1c(=O)ccc2cnc(Nc3cc(OC)c(OC)c(OC)c3)nc21 [Example 501]', 7.09);

---

Reported melting point by item:
readout name: melting point

INSERT INTO assay_data (compound, endpoint_value) VALUES
  ('CCN(CC)CCOc1ccc(Nc2ncc3ccc(=O)n(CCCOCc4ccccc4)c3n2)cc1 [Example 116]', '70 to 72 °C'),
  ('CCOC(=O)N1CCC(n2c(=O)ccc3cnc(Nc4ccc(N5CCCCC5)cc4)nc32)CC1 [Example 246]', '231 to 233 °C'),
  ('CC(C)n1c(=O)ccc2cnc(Nc3ccccc3)nc21 [Example 43]', '170 to 171 °C'),
  ('CC1CC(C)CN(c2ccc(Nc3ncc4ccc(=O)n(C5CCCCC5)c4n3)cc2)C1 (stereo not shown) [Example 167]', '238 to 240 °C'),
  ('CCNc1nc(Nc2ccccc2)ncc1C(C)=CC(=O)OCC [Example 73]', '148 to 150 °C'),
  ('O=c1ccc2cnc(Nc3ccccc3)nc2n1CC1CCCCC1 [Example 182]', '230 to 231 °C'),
  ('CN1CCN(c2ccc(Nc3ncc4ccc(=O)n(C5CC5)c4n3)cc2)CC1 [Example 136]', '210 to 211 °C'),
  ('Cn1c(=O)ccc2cnc(NCc3ccccc3)nc21 [Example 63]', '160 to 162 °C'),
  ('O=c1ccc2cnc(Nc3ccc(N4CCCC4)cc3)nc2n1C1CCCCC1 [Example 160]', '199 to 200 °C'),
  ('O=c1ccc2cnc(Nc3ccc(N4CCCCC4CO)cc3)nc2n1C1CCCC1 (stereo not shown) [Example 207]', '135 to 136 °C'),
  ('CC1CN(c2ccc(Nc3ncc4ccc(=O)n(C5CCCCC5)c4n3)cc2)CC(C)N1 (stereo not shown) [Example 145]', '237 to 239 °C'),
  ('CCN(CC)CCOc1ccc(Nc2ncc3ccc(=O)n(C4CCCCC4)c3n2)cc1C [Example 150]', '119 to 121 °C'),
  ('CCN(CC)CCOc1ccc(Nc2ncc3ccc(=O)n(CC)c3n2)cc1 [Example 52]', '128 to 129 °C'),
  ('O=c1ccc2cnc(Nc3ccc(N4CCSCC4)cc3)nc2n1C1CCCCC1 [Example 177]', '213 to 214 °C'),
  ('CC(C)Cn1c(=O)ccc2cnc(Nc3ccccc3)nc21 [Example 42]', '170 to 171 °C'),
  ('O=c1ccc2cnc(Nc3ccc(F)c(F)c3)nc2n1C1CC2CCC1C2 (stereo not shown) [Example 220]', '227 to 228 °C'),
  ('CCn1c(=O)ccc2cnc(Nc3ccc(-c4ccccc4)cc3)nc21 [Example 49]', '207 to 208 °C'),
  ('O=c1ccc2cnc(Nc3ccc(N4CCC(CCN5CCOCC5)CC4)cc3)nc2n1C1CCCCC1 [Example 258]', '245 to 246 °C'),
  ('CN1CCN(c2ccc(Nc3ncc4ccc(=O)n(CCCOCc5ccccc5)c4n3)cc2)CC1 [Example 115]', '148 to 150 °C'),
  ('COC(=O)Cn1c(=O)ccc2cnc(Nc3ccccc3)nc21 [Example 36]', '232 to 233 °C'),
  ('CCCCNc1ncc2ccc(=O)n(C)c2n1 [Example 64]', '146 to 147 °C'),
  ('COc1ccc(CNc2ncc3ccc(=O)n(C4CCCCC4)c3n2)cc1 [Example 225]', '165 °C'),
  ('O=c1ccc2cnc(Nc3ccc(N4CCC(O)CC4)cc3)nc2n1C1CCCCC1 [Example 215]', '224 to 225 °C'),
  ('CCN(CC)CCOc1ccc(Nc2ncc3ccc(=O)n(C4CCCCCC4)c3n2)cc1 [Example 156]', '121 to 122 °C'),
  ('O=c1ccc2cnc(Nc3ccc(N4CCC(CCO)CC4)cc3)nc2n1C1CC2CCC1C2 (stereo not shown) [Example 228]', '202 °C'),
  ('CCN(CC)CCOc1ccc(Nc2ncc3ccc(=O)n(C(C)C)c3n2)cc1 [Example 59]', '84 to 85 °C'),
  ('CCNc1ncc2ccc(=O)n(-c3ccccc3)c2n1 [Example 100]', '193 to 195 °C'),
  ('CCN(CC)CCOc1ccc(Nc2ncc3ccc(=O)n(C4CCCCC4)c3n2)cc1 [Example 132]', '135 to 137 °C');

---

# test target: cdk2/cyclinE (Homo sapiens, UniProt P24941)
# measurement description: Cyclin-Dependent Kinase Assay cdk2/cyclinE
# test conditions: cdk2/E IC50
pIC50: −log10 of the molar value.
readout name: pIC50

INSERT INTO assay_data (molecule, endpoint_value) VALUES
  ('CC(C)n1c(=O)ccc2cnc(Nc3ccc(F)c(F)c3)nc21', 6.89),
  ('CCC(CC)n1c(=O)ccc2cnc(Nc3ccc4[nH]ccc4c3)nc21', 6.79),
  ('CCC(CC)n1c(=O)ccc2cnc(Nc3ccc(NC(=O)OC(C)(C)C)cc3)nc21', 6.90),
  ('CCCCn1c(=O)ccc2cnc(Nc3ccc(OC)cc3)nc21', 6.82),
  ('CCC(C)n1c(=O)ccc2cnc(Nc3ccc(C#N)cc3)nc21 (stereo not shown)', 6.85),
  ('CCC(CC)n1c(=O)ccc2cnc(Nc3ccc4c(c3)CCC4)nc21', 6.96),
  ('CCCCn1c(=O)ccc2cnc(Nc3ccc(OC)c(Cl)c3)nc21', 6.91);

---

# test target: cdk2/cyclinA (Homo sapiens)
# measurement description: Cyclin-Dependent Kinase Assay cdk2/cyclinA
# test conditions: cdk2/A IC50
pIC50: −log10 of the molar value.
readout name: pIC50

INSERT INTO assay_data (molecule, test_target, readout_name, endpoint_value) VALUES
  ('O=c1ccc2cnc(Nc3cccc(C(F)(F)F)c3)nc2n1C1CCCC1', 'cdk2/cyclinA (Homo sapiens)', 'pIC50', 6.60),
  ('CCC(CC)n1c(=O)ccc2cnc(Nc3ccc4oc(=O)[nH]c4c3)nc21', 'cdk2/cyclinA (Homo sapiens)', 'pIC50', 7.25),
  ('O=C(O)c1cc(Nc2ncc3ccc(=O)n(C4CCCC4)c3n2)ccc1O', 'cdk2/cyclinA (Homo sapiens)', 'pIC50', 6.66),
  ('CCCn1c(=O)ccc2cnc(Nc3ccc4[nH]ccc4c3)nc21', 'cdk2/cyclinA (Homo sapiens)', 'pIC50', 6.60),
  ('CCCCn1c(=O)ccc2cnc(Nc3ccc(Br)c(C(F)(F)F)c3)nc21', 'cdk2/cyclinA (Homo sapiens)', 'pIC50', 5.54),
  ('CCCCn1c(=O)ccc2cnc(Nc3cc(OC)cc(C(F)(F)F)c3)nc21', 'cdk2/cyclinA (Homo sapiens)', 'pIC50', 5.59),
  ('CCC(CC)n1c(=O)ccc2cnc(Nc3ccc(Br)c(Cl)c3)nc21', 'cdk2/cyclinA (Homo sapiens)', 'pIC50', 5.89),
  ('CC(C)n1c(=O)ccc2cnc(Nc3ccc(C#N)c(C#N)c3)nc21', 'cdk2/cyclinA (Homo sapiens)', 'pIC50', 5.59),
  ('CCCCn1c(=O)ccc2cnc(Nc3ccc(OC)cc3)nc21', 'cdk2/cyclinA (Homo sapiens)', 'pIC50', 6.49),
  ('CCCn1c(=O)ccc2cnc(Nc3ccc(N(C)C(C)=O)cc3)nc21', 'cdk2/cyclinA (Homo sapiens)', 'pIC50', 6.08),
  ('CCCn1c(=O)ccc2cnc(Nc3ccc(C)c(C)c3)nc21', 'cdk2/cyclinA (Homo sapiens)', 'pIC50', 5.89),
  ('Cc1ccc(Nc2ncc3ccc(=O)n(C4CCCC4)c3n2)cc1Cl', 'cdk2/cyclinA (Homo sapiens)', 'pIC50', 6.51),
  ('CCC(CC)n1c(=O)ccc2cnc(Nc3cccc(C(F)(F)F)c3)nc21', 'cdk2/cyclinA (Homo sapiens)', 'pIC50', 6.14),
  ('CCC(CC)n1c(=O)ccc2cnc(Nc3ccc(C)c(C)c3)nc21', 'cdk2/cyclinA (Homo sapiens)', 'pIC50', 6.36),
  ('CC(C)(C)OC(=O)Nc1ccc(Nc2ncc3ccc(=O)n(CC4CC4)c3n2)cc1', 'cdk2/cyclinA (Homo sapiens)', 'pIC50', 6.29),
  ('CCCn1c(=O)ccc2cnc(Nc3ccc4[nH]ncc4c3)nc21', 'cdk2/cyclinA (Homo sapiens)', 'pIC50', 6.84),
  ('CCC(C)n1c(=O)ccc2cnc(Nc3ccc(F)c([N+](=O)[O-])c3)nc21 (stereo not shown)', 'cdk2/cyclinA (Homo sapiens)', 'pIC50', 5.82),
  ('O=c1ccc2cnc(Nc3ccccc3)nc2n1CC(F)(F)F', 'cdk2/cyclinA (Homo sapiens)', 'pIC50', 5.55),
  ('Cc1ccc(Nc2ncc3ccc(=O)n(C4CCCC4)c3n2)cc1NS(C)(=O)=O', 'cdk2/cyclinA (Homo sapiens)', 'pIC50', 6.80),
  ('CC(=O)Nc1cc(Nc2ncc3ccc(=O)n(C(C)C)c3n2)ccc1C#N', 'cdk2/cyclinA (Homo sapiens)', 'pIC50', 6.34),
  ('CCC(CC)n1c(=O)ccc2cnc(Nc3ccc4c(c3)NC(=O)CS4)nc21', 'cdk2/cyclinA (Homo sapiens)', 'pIC50', 7.07),
  ('CCCn1c(=O)ccc2cnc(Nc3ccc(F)cc3)nc21', 'cdk2/cyclinA (Homo sapiens)', 'pIC50', 5.88),
  ('CCCn1c(=O)ccc2cnc(Nc3ccc(OC)c(OC)c3)nc21', 'cdk2/cyclinA (Homo sapiens)', 'pIC50', 6.06),
  ('CCCCn1c(=O)ccc2cnc(Nc3ccc(Cl)c(C(F)(F)F)c3)nc21', 'cdk2/cyclinA (Homo sapiens)', 'pIC50', 6.06),
  ('CC(C)n1c(=O)ccc2cnc(Nc3ccc(F)c(C(F)(F)F)c3)nc21', 'cdk2/cyclinA (Homo sapiens)', 'pIC50', 6.34);
